assay: Time dependent organ distribution of CPT after intranasal administration of DLPC liposomes; type: in vivo; conditions: other: intranasal instillation; Lung, 60 min; mice, intranasal DLPC liposomal CPT 7 μg per mouse; read-out: CPT in tissue
readout-name: concentration at 60 min (ng/g)
Numeric only. Scale: ng/g

input: State its concentration at 60 min: CC[C@@]1(O)C(=O)OCc2c1cc1n(c2=O)Cc2cc3ccccc3nc2-1
output: 7

----------
assay: Time dependent organ distribution of CPT after intramuscular administration; format: in vivo; conditions: mouse, 7 μg per mouse, Kidney, 0 min, mice, i.m. CPT in DMSO/saline suspension, read-out: CPT in tissue
readout-name: concentration at 0 min (ng/g)
Numeric only. Scale: ng/g

input: State its concentration at 0 min: CC[C@@]1(O)C(=O)OCc2c1cc1n(c2=O)Cc2cc3ccccc3nc2-1
output: 2

Origin of measurements: patent US7348025B2
